Test system: ICR (CD-1) mice
Assay: In vivo toxicity in mice (SC, IN, IP routes)
Conditions: IP, 3 doses (1hr, 12hr, 24hr); RN7-IN10, RN7-IN8 20 mg/kg; RN7-IN9, RN7-IN6 10 mg/kg; day 7; mean±SD, 4 mice
observable: platelet Counts, PLT

Examples with their reported platelet Counts, PLT follow.
substance | platelet Counts, PLT
FLGGLIKWPWWPWRR-NH2 [RN7-IN8, hybrid peptide of ranalexin (residues 1-7) and indolicidin (residues 6-13)] | 472.5±100.52 10^3/mm^3
FLGGLIKWKWPWWPWRR-NH2 [RN7-IN10, hybrid peptide of ranalexin (residues 1-7) and indolicidin (residues 4-13)] | 535±150.11 10^3/mm^3
FLGGLIKWWPWRR-NH2 [RN7-IN6, hybrid peptide of ranalexin (residues 1-7) and indolicidin (residues 8-13)] | 540.75±107.41 10^3/mm^3

State the measured platelet Counts, PLT (ICR (CD-1) mice) of FLGGLIKKWPWWPWRR-NH2 [RN7-IN9, hybrid peptide of ranalexin (residues 1-7) and indolicidin (residues 5-13)] 674±118.72 10^3/mm^3

Data provenance is paper PMC5632533.
